Target: Aβ42 (Homo sapiens, UniProt P05067)
Sequence (P05067 672-713): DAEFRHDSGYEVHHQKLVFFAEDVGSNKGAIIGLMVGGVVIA
Assay: Th-T (thioflavin-T) assay of Aβ42 aggregation
Type: biochemical
Details: Aβ42 aggregation time course, reading M121
As shown below, each of these compounds has a reported Th-T fluorescence, mean of three wells value.
quantityName: Th-T fluorescence, mean of three wells

> print(dat)
                                    compound                   experimentaltarget  reportedresult
 1  C=C1CC[C@H]2[C@]3(C)C[C@H](C=C(C)C)O[C@H]3CC[C@]2(C)[C@@H]1Cc1c(OC)oc(CO)c(C)c1=O  Aβ42 (Homo sapiens, UniProt P05067)           3.768
 2  C=C1CCC2C(C)(CCC=C(C)C)C(O)CCC2(C)C1Cc1c(O)c(C)c(C)oc1=O (centres unmarked) [Compound 4]  Aβ42 (Homo sapiens, UniProt P05067)           2.751
 3  C=C1CCC2C(C)(CCC=C(C)C)C(O)CCC2(C)C1Cc1c(OC)oc(CO)c(C(=O)OC)c1=O (centres unmarked)  Aβ42 (Homo sapiens, UniProt P05067)           1.036
 4  C=C1CCC2C(C)(CCC=C(C)C)C(=O)CCC2(C)C1Cc1c(O)c(C)c(C)oc1=O (centres unmarked)  Aβ42 (Homo sapiens, UniProt P05067)           2.184
 5  C=C1CCC2C(C)(CCC=C(C)C)C(O)CCC2(C)C1Cc1c(OC)oc(C)c(C)c1=O (centres unmarked) [Compound 15, viridoxin A hydrolysate]  Aβ42 (Homo sapiens, UniProt P05067)           3.335
 6  C=C1CCC2C(C)(CCC=C(C)C)C(O)CCC2(C)C1Cc1c(O)c(C)c(C)oc1=O (centres unmarked) [Compound 9, higginsianin B]  Aβ42 (Homo sapiens, UniProt P05067)           2.791
 7  C=C1CCC2C(C)(CCC=C(C)C)C(O)CCC2(C)C1Cc1c(OC)oc(C)c(C)c1=O (centres unmarked) [Compound 11]  Aβ42 (Homo sapiens, UniProt P05067)            3.42
 8  C=C1CCC2C3(C)CC(C=C(C)C)OC3CCC2(C)C1Cc1c(OC)oc(C)c(C)c1=O (centres unmarked)  Aβ42 (Homo sapiens, UniProt P05067)           3.807
 9  C=C1CC[C@@H]2[C@](C)(CC[C@H]3O[C@H](C=C(C)C)C[C@@]23C)[C@@H]1Cc1c(OC)oc(CO)c(C(=O)OC)c1=O  Aβ42 (Homo sapiens, UniProt P05067)           1.028
10  C=C1CC[C@@H]2[C@](C)(CC[C@H]3O[C@H](C=C(C)C)C[C@@]23C)[C@@H]1Cc1c(OC)oc(CO)c(C)c1=O  Aβ42 (Homo sapiens, UniProt P05067)           4.166
11  C=C1CCC2C(C)(CC(=O)C=C(C)C)C(O)CCC2(C)C1Cc1c(O)c(C)c(C)oc1=O (centres unmarked)  Aβ42 (Homo sapiens, UniProt P05067)           3.437
12  C=C1CC[C@H]2[C@]3(C)C[C@@H](C=C(C)C)O[C@H]3CC[C@]2(C)[C@@H]1Cc1c(O)c(C)c(C)oc1=O  Aβ42 (Homo sapiens, UniProt P05067)           2.686
13  C=C1CCC2C(C)(CC(=O)C=C(C)C)C(O)CCC2(C)C1Cc1c(OC)oc(CO)c(C)c1=O (centres unmarked)  Aβ42 (Homo sapiens, UniProt P05067)          3.6213
14  C=C1CC[C@@H]2[C@](C)(CC[C@H]3O[C@H](C=C(C)C)C[C@@]23C)[C@@H]1Cc1c(O)c(C)c(C)oc1=O  Aβ42 (Homo sapiens, UniProt P05067)           3.009
